System: E. coli TESEC Alr+ wild-type control
protocol_description: growth (OD600 after 10 h); higher = more growth (less inhibition)
test_conditions: compound 0.1 mM; raw OD600 reference: median of DMSO wells 0.241, cell-free background 0.041
Counter-ions that a name gives are not always drawn.
I would appreciate it if you labelled entries 1.0 when growth is 0.2 or higher, otherwise 0.0.

**Query** Answer whether growth of N=C(N)NCc1cccc(I)c1 [Iobenguane sulfate] is greater than or equal to 0.2.
**Result** 1.0

**Query** Is the recorded value of growth equal to or greater than 0.2 for this molecule? C=C[C@H]1CN2CC[C@H]1C[C@@H]2[C@@H](O)c1ccnc2ccc(OC)cc12 [Quinidine hydrochloride monohydrate]
**Result** 1.0

**Query** Is growth for O=S(=O)(O)CCS at or above 0.2?
**Result** 1.0

**Query** Is it the case that COc1ccc(C[C@@H]2c3cc(OC)c(OC)cc3CC[N@+]2(C)CCC(=O)OCCCCCOC(=O)CC[N@@+]2(C)CCc3cc(OC)c(OC)cc3[C@H]2Cc2ccc(OC)c(OC)c2)cc1OC [Cisatracurium besylate] has growth reaching or exceeding 0.2?
**Result** 0.0

====

System: E. coli TESEC Mtb Alr
protocol_description: growth (OD600 after 10 h); higher = more growth (less inhibition)
test_conditions: arabinose 100 nM; compound 0.1 mM; raw OD600 reference: median of DMSO wells 0.413, cell-free background 0.052
Where a name gives a salt, the structure may show the parent alone.
metric_name: growth
# print the numeric value only

# count of solved cases: 3
{"compound": "CC1(C)S[C@@H]2[C@H](NC(=O)[C@H](NC(=O)N3CCNC3=O)c3ccccc3)C(=O)N2[C@H]1C(=O)O [Azlocillin sodium salt]", "growth": 0.403}
{"compound": "OC(Cn1cncn1)(Cn1cncn1)c1ccc(F)cc1F [Fluconazole]", "growth": 0.411}
{"compound": "CS(=O)(=O)OCCCCOS(C)(=O)=O [Busulfan]", "growth": 0.412}

**Query** Read off the recorded growth for N=c1nc(N2CCCCC2)cc(N)n1O [Minoxidil]
**Result** 0.406

====

Tested on: E. coli TESEC Mtb Alr
protocol_description: growth (OD600 after 10 h); higher = more growth (less inhibition)
test_conditions: arabinose 100 nM; compound 0.1 mM; raw OD600 reference: median of DMSO wells 0.413, cell-free background 0.052
Structures can show the parent of a compound that is named as a salt.
metric_name: growth
Field format: numeric only.

{"molecule": "C[C@]12CC[C@@H]3c4ccc(O)cc4CC[C@H]3[C@@H]1CC[C@@H]2O", "experimental_value": 0.399}

**Query** Hello, please tell me recorded growth for this one: CC(C)(CO)C(O)C(=O)NCCCO (stereo unspecified)
**Result** 0.406

**Query** Please report the measured growth for Cc1cc(-c2ccccc2)nnc1NCCN1CCOCC1 [Minaprine dihydrochloride]
**Result** 0.409

**Query** Supply reported growth belonging to this molecule: CCCCC1(COC(=O)CCC(=O)O)C(=O)N(c2ccccc2)N(c2ccccc2)C1=O
**Result** 0.401

**Query** Supply recorded growth for COc1cc(C(=O)N2CCOCC2)cc(OC)c1OC here.
**Result** 0.401

**Query** Give growth for CCOC(=O)N1CCC(=C2c3ccc(Cl)cc3CCc3cccnc32)CC1
**Result** 0.391
